meta.source: patent US20030082641A1

Molecular target: T1, rat GALR2 receptor (rat, UniProt O08726 1-372)
T1 construct: whole, on cells; Expressed in COS-7 (transient), LMTK #4, CHO #79 cells or oocytes; also called rGALR2; rGalR2
T1 sequence (looked up): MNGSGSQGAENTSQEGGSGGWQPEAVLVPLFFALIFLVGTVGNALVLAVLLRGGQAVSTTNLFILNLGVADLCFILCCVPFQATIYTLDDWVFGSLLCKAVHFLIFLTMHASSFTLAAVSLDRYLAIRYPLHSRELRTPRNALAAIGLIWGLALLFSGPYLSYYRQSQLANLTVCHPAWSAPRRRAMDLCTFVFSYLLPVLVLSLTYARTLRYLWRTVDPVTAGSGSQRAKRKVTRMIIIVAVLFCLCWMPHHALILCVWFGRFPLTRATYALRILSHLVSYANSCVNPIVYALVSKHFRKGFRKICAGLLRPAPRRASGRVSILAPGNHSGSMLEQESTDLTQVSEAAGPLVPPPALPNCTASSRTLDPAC
Assay: displacement of porcine 125I-galanin; rat GALR2 in LMTK #4
Measurement type: Ki (nM)
Numeric answer only, unit nM assumed.

SPVKEKRGWTLNSAGYLLGPHAIDNHRSFHDKYGLA (peptide, UniProt P07480 26-61, looked up, range -7 to +29; also called galanin -7 to +29; Gal -7-29) [(-7) to (+29) galanin, porcine]: 3.16

We next turn to a different binder, shown below.
Query: Note Ki for the binder shown: LGSPVKEKRGWTLNSAGYLLGPHAIDNHRSFHDKYGLA (peptide, UniProt P07480 24-61, looked up, range -9 to +29; also called galanin -9 to +29) [(-) 9 to (+) 29 galanin, porcine]
Result: 3.47
